The origin of these recorded values is patent US10550105B2.

Molecular target: PARP7 (Homo sapiens (Human))
Sequence (Q7Z3E1 whole entry): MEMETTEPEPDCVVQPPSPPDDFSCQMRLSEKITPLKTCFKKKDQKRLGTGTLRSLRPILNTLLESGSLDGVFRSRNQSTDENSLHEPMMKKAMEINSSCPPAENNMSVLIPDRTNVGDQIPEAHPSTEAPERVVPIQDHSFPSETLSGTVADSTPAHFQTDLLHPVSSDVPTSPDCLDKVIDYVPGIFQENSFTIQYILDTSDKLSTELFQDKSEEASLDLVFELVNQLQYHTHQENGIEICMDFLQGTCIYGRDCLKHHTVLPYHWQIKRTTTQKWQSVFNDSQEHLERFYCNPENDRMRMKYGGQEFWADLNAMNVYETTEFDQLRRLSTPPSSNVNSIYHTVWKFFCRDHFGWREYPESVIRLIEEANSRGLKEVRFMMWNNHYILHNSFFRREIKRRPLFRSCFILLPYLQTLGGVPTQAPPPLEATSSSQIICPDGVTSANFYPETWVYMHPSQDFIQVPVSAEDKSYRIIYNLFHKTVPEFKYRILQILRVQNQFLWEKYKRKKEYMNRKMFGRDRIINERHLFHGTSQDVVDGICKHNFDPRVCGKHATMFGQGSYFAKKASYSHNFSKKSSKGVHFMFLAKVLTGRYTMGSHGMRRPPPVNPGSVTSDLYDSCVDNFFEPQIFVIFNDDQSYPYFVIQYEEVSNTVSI
Test: Enzymatic assay for inhibition of PARP7: TR-FRET displacement of biotinylated Probe A from the TIPARP active site
Format: binding
Details: Table A-1
Method: 20 nL of a dose response curve of each test compound was spotted in black 384-well polystyrene proxiplates (Perkin Elmer) using a Mosquito (TTP Labtech). […] Reactions were incubated at 25° C. for an additional 30 min, then read on an Envision platereader equipped with a LANCE/DELFIA top mirror (Perkin Elmer) using excitation of 320 nm and emission of 615 nm and 665 nM with a 90 μs delay. […]
READOUT TYPE: IC50

What does the record list as IC50 for C[C@@H](COCCC(=O)N1CCN(c2ncc(C(F)(F)F)cn2)CC1)Sc1cn[nH]c(=O)c1Br [Example 700] ?
< 0.1 µM

GET /values?readout=IC50&item= O=C(CCOC[C@@H]1CCCN1c1cn[nH]c(=O)c1C(F)(F)F)N1CCN(c2ncc(Cl)cn2)CC1 [Example 482]
< 0.1 µM

If you can, please state the reported IC50 value of N#Cc1cnc(N2CCN(C(=O)c3cc(OC[C@H]4c5ccccc5CN4c4cn[nH]c(=O)c4C(F)(F)F)ccn3)CC2)nc1 (single isomer, unassigned) [Example 64 Isomer A] .
≥ 1 µM
